target: HLA-A*68:02; test: IEDB peptide-MHC binding, purified MHC/competitive/radioactivity; filed as Kd, often an IC50 or EC50 that approximates it; bounds were set here for any values at or beyond the usual limits of such assays; conditions: source organism: Dengue virus 2 Jamaica/1409/1983
value-type: Kd (nM)

1. ESPSKLASAI ... 74.2
2. EIAETQHGTI ... 101
3. EAAGIFMTA ... 0.37

====

target: HLA-B*27:05; test: IEDB peptide-MHC binding, purified MHC/direct/fluorescence; filed as Kd, often an IC50 or EC50 that approximates it; bounds were set here for any values at or beyond the usual limits of such assays; details: source organism: SARS-CoV1
Listed here: items and their measured Kd.
value-type: Kd (nM)

1) YRYLRHGKL ... 78.6
2) KRVDWSVEY ... 258
